The reported numbers originate from the Human Domainome abundance scans (Beltran et al. 2025).

Quick list: abundance fitness per entry.
B1: Histone-lysine N-methyltransferase SETD2, residues 2382 to 2430; numbered along this chain, Q9BYW2 (parent)
chain: SPPKPKTIVLPPNWKTARDPEGKIYYYHVITRQTQWDPPTWESPGDDAS

- Variants of: B1
- TEST DESCRIPTION: abundance fitness (aPCA) (normalised: wild type 0, dead -1); higher = more abundant; growth selection in yeast, the domain comes from the species named
- REPORTED CONDITIONS: Homo sapiens
Just the number, please.

Here are 10 variants together with their reported answers.
VARIANT ID	RESULT VALUE
P5V	0.162
P5M	0.199
I30T	-0.013
P2R	-0.118
L10M	-0.314
P11M	-0.374
W14A	-0.865
K23F	-0.619
I8L	0.165
T40D	-0.342

Proceeding to the next variant to report its abundance fitness.
Would you kindly share the measured abundance fitness for G45F ? 0.019
